Cited source for all entries: patent US12247064B2

- target_or_system: 5HT3-R (Homo sapiens)
- Sequence (P46098 24-478): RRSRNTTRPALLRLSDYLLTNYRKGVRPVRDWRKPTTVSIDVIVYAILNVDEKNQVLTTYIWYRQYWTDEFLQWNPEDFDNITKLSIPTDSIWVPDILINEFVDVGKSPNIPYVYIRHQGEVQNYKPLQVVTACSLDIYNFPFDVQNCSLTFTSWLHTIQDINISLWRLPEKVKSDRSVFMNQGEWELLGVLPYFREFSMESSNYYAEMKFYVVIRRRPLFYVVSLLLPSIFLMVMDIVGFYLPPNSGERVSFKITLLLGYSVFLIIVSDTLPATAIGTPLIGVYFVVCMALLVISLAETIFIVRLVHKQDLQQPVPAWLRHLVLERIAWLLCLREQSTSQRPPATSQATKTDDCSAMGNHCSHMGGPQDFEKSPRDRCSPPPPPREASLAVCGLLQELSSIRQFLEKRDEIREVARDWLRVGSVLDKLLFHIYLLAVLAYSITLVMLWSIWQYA
- test_protocol: Agonist potency at 5HT3-R
- Type: cell-based
- condition_notes: 5HT3-R; Table 10
EC50 values, listed per item

{"columns": ["compound", "bound_operator", "EC50 (µM)"],
 "data": [
  ["Cc1ccccc1-c1cnc2cc3c(cc2n1)C1CC3CN(C)C1 (stereo not shown) [compound 782]", ">", 30],
  ["c1ccn(-c2cnc3cc4c(cc3n2)C2CNCC4C2)c1 (stereo not shown) [compound 799]", "=", 11.7],
  ["O=c1[nH]c2cc3c(cc2nc1-c1ccccc1)C1CNCC3C1 (stereo not shown) [compound 784]", "=", 6.2],
  ["c1ncn(-c2cnc3cc4c(cc3n2)C2CNCC4C2)n1 (stereo not shown) [compound 801]", "=", 4.4],
  ["Cc1nc2cc3c(cc2nc1Cn1cccn1)C1CNCC3C1 (stereo not shown) [compound 812]", "=", 11],
  ["Cn1c(=O)cnc2cc3c(cc21)C1CNCC3C1 (stereo not shown) [compound 792]", "=", 40.5],
  ["c1cnc2cc3c(cc2n1)[C@@H]1CNC[C@H]3C1 [Varenicline]", "=", 1.4],
  ["COc1nc2cc3c(cc2nc1-c1ccccc1)C1CNCC3C1 (stereo not shown) [compound 789]", "=", 0.51],
  ["Cc1nc2cc3c(cc2nc1-n1cncn1)C1CNCC3C1 (stereo not shown) [compound 808]", "=", 12.5],
  ["COc1nc2cc3c(cc2nc1C)C1CNCC3C1 (stereo not shown) [compound 791]", "=", 0.17]
]}

---

Measured EC50 values are reported for all entries that follow.
- target_or_system: α4β2 nAChR (Homo sapiens, UniProt P17787+P43681)
- Sequence (P43681 29-627 limits assumed): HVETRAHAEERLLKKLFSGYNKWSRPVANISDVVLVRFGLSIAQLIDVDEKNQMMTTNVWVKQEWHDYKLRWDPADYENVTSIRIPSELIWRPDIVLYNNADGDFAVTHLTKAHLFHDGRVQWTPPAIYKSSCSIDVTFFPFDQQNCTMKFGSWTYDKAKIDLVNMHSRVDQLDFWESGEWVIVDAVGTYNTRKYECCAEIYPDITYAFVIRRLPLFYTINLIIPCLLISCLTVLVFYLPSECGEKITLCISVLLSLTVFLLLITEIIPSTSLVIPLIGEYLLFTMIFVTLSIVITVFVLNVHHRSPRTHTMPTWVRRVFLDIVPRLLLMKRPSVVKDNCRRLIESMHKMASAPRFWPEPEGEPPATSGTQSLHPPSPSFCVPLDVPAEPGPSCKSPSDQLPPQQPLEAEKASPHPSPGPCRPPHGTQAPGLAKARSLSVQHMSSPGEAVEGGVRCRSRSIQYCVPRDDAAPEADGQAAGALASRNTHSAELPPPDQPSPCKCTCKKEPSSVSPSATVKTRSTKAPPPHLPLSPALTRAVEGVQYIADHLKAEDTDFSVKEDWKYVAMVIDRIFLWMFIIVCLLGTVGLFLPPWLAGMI
- Sequence (P17787 26-502): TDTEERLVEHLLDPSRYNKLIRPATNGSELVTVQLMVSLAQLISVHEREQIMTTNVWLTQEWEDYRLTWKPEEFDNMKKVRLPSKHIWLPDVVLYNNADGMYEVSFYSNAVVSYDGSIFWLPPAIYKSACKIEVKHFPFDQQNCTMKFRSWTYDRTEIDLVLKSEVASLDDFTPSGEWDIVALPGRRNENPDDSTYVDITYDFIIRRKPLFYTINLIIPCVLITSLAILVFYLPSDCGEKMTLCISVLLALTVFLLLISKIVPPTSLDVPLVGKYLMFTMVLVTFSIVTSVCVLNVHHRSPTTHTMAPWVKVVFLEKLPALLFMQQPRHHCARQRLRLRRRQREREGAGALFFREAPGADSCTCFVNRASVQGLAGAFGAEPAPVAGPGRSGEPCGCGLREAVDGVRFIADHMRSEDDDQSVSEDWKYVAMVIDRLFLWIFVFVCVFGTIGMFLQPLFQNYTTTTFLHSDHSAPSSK
- test_protocol: Agonist potency at α4β2 nAChR
- condition_notes: […], α4β2 nAChR; Table 10

{"columns": ["molecule", "EC50"],
 "data": [
  ["Cc1nc2cc3c(cc2nc1N(C)C)C1CNCC3C1 (stereo not drawn) [compound 794]", "> 30 µM"],
  ["Cc1nc2cc3c(cc2nc1-n1ccnc1)C1CNCC3C1 (stereo not drawn) [compound 798]", "28 µM"],
  ["c1ccn(-c2cnc3cc4c(cc3n2)C2CNCC4C2)c1 (stereo not drawn) [compound 799]", "3.5 µM"]
]}

---

- target_or_system: α7^Q79G-5HT3 (Homo sapiens, UniProt P36544, M226I/Q79G/T225I)
- Sequence (P36544 with tags, fused parts or gaps Q79G/T225I/M226I limits assumed): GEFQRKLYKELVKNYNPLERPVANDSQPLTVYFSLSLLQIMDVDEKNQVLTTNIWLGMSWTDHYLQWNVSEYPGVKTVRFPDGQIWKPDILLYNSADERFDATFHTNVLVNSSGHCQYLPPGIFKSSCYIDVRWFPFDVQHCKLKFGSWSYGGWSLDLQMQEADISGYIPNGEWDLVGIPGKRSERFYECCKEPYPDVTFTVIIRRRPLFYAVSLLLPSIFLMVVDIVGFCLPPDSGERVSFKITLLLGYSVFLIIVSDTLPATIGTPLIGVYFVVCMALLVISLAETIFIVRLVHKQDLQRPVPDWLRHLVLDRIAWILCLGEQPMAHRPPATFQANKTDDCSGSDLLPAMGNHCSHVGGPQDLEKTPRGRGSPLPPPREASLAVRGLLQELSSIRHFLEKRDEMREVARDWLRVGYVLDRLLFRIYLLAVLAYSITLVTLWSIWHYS
- condition_notes: HEK cells; Table 1
assay_readout: EC50 (µM)

{"columns": ["compound", "assay_readout", "readout_units", "meas_value"],
 "data": [
  ["Cn1cc(C(=O)C(=O)NC2CN3CCC2CC3)c2ccccc21 (stereo not shown) [RS56812]", "EC50", "µM", 1.4]
]}

---

- target_or_system: UniProtKB P46098
- Sequence (P46098 24-478): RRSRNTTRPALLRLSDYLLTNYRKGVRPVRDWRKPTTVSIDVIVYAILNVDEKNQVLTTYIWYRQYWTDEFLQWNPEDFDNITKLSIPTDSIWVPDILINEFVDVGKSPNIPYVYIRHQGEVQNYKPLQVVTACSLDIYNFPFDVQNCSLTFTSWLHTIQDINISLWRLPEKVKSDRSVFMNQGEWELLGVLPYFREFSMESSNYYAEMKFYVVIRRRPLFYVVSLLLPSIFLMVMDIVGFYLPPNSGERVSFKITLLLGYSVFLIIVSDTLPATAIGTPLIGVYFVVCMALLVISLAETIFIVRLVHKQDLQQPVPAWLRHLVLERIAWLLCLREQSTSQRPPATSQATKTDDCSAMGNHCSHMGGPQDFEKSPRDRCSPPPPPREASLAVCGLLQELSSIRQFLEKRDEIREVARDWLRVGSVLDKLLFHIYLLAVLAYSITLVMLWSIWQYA
- test_protocol: Agonist potency at 5HT3-R
- Assay type: cell-based
- condition_notes: 5HT3-R; Table 10

{"columns": ["molecule", "target_or_system", "EC50"],
 "data": [
  ["FC(F)(F)c1cnc2cc3c(cc2n1)C1CNCC3C1 (stereo not drawn)", "UniProtKB P46098", "41 µM"],
  ["Cc1nc2cc3c(cc2n(C)c1=O)C1CNCC3C1 (stereo not drawn)", "UniProtKB P46098", "4.3 µM"],
  ["c1cn(-c2cnc3cc4c(cc3n2)C2CNCC4C2)cn1 (stereo not drawn)", "UniProtKB P46098", "3.5 µM"],
  ["CCN(CC)c1nc2cc3c(cc2nc1C)C1CNCC3C1 (stereo not drawn)", "UniProtKB P46098", "1.1 µM"],
  ["Cc1nc2cc3c(cc2nc1Cn1cncn1)C1CNCC3C1 (stereo not drawn)", "UniProtKB P46098", "0.57 µM"],
  ["Cc1nc2cc3c(cc2nc1-n1ccnc1)C1CNCC3C1 (stereo not drawn)", "UniProtKB P46098", "1.1 µM"],
  ["c1c2c(cc3nc4c(nc13)CCCC4)C1CNCC2C1", "UniProtKB P46098", "10.2 µM"],
  ["Cc1nc2cc3c(cc2nc1N(C)C)C1CNCC3C1 (stereo not drawn)", "UniProtKB P46098", "1.7 µM"],
  ["Cc1nc2cc3c(cc2[nH]c1=O)C1CNCC3C1 (stereo not drawn)", "UniProtKB P46098", "0.43 µM"]
]}

---

- target_or_system: α7-5HT3 (Homo sapiens, UniProt P36544, M226I/T225I)
- Sequence (P36544 with tags, fused parts or gaps T225I/M226I limits assumed): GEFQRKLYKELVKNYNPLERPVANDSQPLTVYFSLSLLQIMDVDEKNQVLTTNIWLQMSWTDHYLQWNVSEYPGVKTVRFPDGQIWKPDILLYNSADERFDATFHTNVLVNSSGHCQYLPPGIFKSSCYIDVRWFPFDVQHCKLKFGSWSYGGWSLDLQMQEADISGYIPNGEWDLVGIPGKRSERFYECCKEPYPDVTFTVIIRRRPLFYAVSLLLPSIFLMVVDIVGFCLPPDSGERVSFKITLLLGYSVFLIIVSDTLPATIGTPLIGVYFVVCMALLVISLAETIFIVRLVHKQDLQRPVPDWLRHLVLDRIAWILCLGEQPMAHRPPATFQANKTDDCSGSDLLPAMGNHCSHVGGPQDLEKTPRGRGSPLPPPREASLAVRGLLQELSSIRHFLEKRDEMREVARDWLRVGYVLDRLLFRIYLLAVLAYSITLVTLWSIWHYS
- condition_notes: read-out: α7-5HT3 EC50; HEK cells; Table 3

{"columns": ["compound", "EC50"],
 "data": [
  ["O=C(NC1CN2CCC1CC2)c1ccc(C(F)(F)F)nc1 (stereo not drawn)", "> 100 µM"],
  ["COc1ccc(OC)c(C(=O)NC2C3CCN(CC3)C2Cc2cccnc2)c1 (mixture of isomers)", "> 10 µM"],
  ["O=C(N[C@@H]1CN2CCC1CC2)c1ccc(C(F)(F)F)cn1", "> 100 µM"]
]}
